The values you see were collected from patent US20170066759A1.

Assay System: hERG (IKr) (Homo sapiens)
Construct: expressed in transfected cells; host or cells: HEK293
Sequence (Q12809 whole entry): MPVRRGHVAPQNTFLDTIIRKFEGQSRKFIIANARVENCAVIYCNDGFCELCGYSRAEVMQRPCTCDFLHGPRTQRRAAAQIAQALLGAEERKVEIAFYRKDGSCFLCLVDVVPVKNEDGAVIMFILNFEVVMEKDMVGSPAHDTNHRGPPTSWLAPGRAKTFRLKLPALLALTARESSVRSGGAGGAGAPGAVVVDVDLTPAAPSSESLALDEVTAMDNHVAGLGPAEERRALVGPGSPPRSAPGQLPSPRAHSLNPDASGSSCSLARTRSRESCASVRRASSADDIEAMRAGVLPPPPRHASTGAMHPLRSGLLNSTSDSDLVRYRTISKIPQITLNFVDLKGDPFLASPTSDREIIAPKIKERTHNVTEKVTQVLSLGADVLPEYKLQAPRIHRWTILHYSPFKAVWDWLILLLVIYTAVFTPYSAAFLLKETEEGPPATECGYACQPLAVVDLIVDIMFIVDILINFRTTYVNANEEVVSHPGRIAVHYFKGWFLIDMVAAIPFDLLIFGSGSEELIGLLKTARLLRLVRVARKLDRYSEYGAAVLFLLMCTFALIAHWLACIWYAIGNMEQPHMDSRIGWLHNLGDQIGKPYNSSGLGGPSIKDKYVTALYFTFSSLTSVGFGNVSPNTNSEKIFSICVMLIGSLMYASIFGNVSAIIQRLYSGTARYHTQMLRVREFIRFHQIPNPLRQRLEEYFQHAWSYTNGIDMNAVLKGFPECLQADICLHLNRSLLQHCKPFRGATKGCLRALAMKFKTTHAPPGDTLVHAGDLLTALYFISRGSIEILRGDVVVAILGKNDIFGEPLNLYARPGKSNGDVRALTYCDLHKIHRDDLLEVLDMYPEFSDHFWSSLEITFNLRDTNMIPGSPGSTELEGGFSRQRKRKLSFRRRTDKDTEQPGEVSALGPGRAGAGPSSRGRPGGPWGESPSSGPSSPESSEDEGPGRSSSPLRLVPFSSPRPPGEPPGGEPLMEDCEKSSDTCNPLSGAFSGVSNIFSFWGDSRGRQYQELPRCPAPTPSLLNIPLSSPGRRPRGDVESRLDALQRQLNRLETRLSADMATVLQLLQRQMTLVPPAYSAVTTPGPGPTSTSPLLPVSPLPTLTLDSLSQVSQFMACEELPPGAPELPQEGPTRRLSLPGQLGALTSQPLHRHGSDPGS
Method Summary: Test Example 10: hERG test (IKr, whole cell patch clamp)
Assay type: cell-based
Experimental Conditions: HEK293 cells expressing hERG channel, pH 7.4, 1 μmol/L of the compound, read-out: hERG % inhibition of tail peak current (IKr)
Reported Metric: inhibition at 10 min, 1 μmol/L (%)

Molecule: Cc1nc(C)c(-c2csc(NC(=O)C3CCC(F)(F)C3)n2)s1 (stereo not shown)
Assay System: hERG (IKr) (Homo sapiens)
Reported Metric: inhibition at 10 min, 1 μmol/L
Units Symbol: %
Test Value: 6.1

====

Assay System: human TRPV4 (hTRPV4/CHO cells) (Homo sapiens, UniProt Q9HBA0)
Construct: expressed in transfected cells; host or cells: CHO-K1
Sequence (Q9HBA0 whole entry): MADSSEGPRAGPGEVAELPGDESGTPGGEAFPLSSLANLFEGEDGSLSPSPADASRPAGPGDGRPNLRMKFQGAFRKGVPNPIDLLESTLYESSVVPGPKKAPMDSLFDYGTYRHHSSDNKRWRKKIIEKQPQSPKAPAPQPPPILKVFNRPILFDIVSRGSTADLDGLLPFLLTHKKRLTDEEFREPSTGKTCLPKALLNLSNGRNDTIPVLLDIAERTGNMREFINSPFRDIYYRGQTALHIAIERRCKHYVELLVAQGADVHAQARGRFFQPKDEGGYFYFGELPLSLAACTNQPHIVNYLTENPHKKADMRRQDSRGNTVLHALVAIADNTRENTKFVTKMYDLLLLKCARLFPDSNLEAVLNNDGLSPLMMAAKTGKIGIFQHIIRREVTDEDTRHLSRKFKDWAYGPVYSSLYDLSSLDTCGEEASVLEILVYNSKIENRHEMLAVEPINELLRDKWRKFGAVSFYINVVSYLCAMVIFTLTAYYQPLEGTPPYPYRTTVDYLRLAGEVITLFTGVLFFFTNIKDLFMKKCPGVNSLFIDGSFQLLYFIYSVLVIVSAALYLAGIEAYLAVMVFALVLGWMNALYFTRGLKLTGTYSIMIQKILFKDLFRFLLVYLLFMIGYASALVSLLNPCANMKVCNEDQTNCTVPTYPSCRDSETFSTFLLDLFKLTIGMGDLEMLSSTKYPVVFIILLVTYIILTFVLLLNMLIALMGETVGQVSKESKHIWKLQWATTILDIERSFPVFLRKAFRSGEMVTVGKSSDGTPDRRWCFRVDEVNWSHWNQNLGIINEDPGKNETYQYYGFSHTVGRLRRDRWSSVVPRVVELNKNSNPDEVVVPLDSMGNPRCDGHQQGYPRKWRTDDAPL
Method Summary: Test Example 1: TRPV4 inhibitory activity (IC50 value), 4α-PDD stimulation, Fluo4 calcium fluorescence (FLIPR TETRA)
Type: cell-based
Experimental Conditions: Test Example 1, 4α-PDD stimulation, read-out: Test 1 IC50
Reported Metric: IC50

Molecule: Cc1nc(CO)sc1-c1csc(NC(=O)Cc2c(F)cccc2F)n1 [Compound I-76]
Reported Metric: IC50
Test Value: < 0.1 µM
//
Molecule: CC(=O)N1C[C@H](c2ccccc2)C[C@H]1C(=O)Nc1nc(-c2sc(C)nc2C)cs1 [Compound I-289]
Reported Metric: IC50
Test Value: 0.1 to 1 µM
//
Molecule: Cc1nc(C)c(-c2csc(NC(=O)CN3CCC(c4ccccc4)C3)n2)s1 (stereo not shown) [Compound I-155]
Reported Metric: IC50
Test Value: 0.1 to 1 µM
//
Molecule: Cc1nc(CO)sc1-c1csc(NC(=O)C2CC(c3ccccc3)=NO2)n1 (stereo not shown) [Compound I-207]
Reported Metric: IC50
Test Value: 0.1 to 1 µM
//
Molecule: Cc1nc(CO)sc1-c1csc(NC(=O)C2CC3(CCC3)C2)n1 [Compound I-450]
Reported Metric: IC50
Test Value: < 0.1 µM
//
Molecule: Cc1nc(C)c(-c2csc(NC(=O)[C@@H]3C[C@H](c4ccccc4)CN3C(=O)OC(C)(C)C)n2)s1 [Compound I-246]
Reported Metric: IC50
Test Value: < 0.1 µM
//
Molecule: COC(=O)N1C[C@H](c2ccccc2)C[C@H]1C(=O)Nc1nc(-c2sc(CO)nc2C)cs1 [Compound I-323]
Reported Metric: IC50
Test Value: < 0.1 µM
//
Molecule: Cc1nc(C)c(-c2csc(NC(=O)Cn3cc(-c4ccccc4N(C)C)cn3)n2)s1 [Compound I-169]
Reported Metric: IC50
Test Value: < 0.1 µM
//
Molecule: Cc1nc(C)c(-c2csc(NC(=O)N3CC(F)C3)n2)s1 [Compound I-90]
Reported Metric: IC50
Test Value: 1 to 8 µM
//
Molecule: Cc1nc(C)c(-c2csc(NC(=O)Cc3ccc(CS(=O)(=O)C(F)(F)F)cc3)n2)s1 [Compound I-35]
Reported Metric: IC50
Test Value: < 0.1 µM
//
Molecule: Cc1nc(C)c(-c2csc(NC(=O)Cc3ccc(S(C)(=O)=O)cc3F)n2)s1 [Compound I-92]
Reported Metric: IC50
Test Value: 0.1 to 1 µM
//
Molecule: Cc1nc(C)c(-c2csc(NC(=O)C3CN(Cc4ccccc4C(F)(F)F)C3)n2)s1 [Compound I-260]
Reported Metric: IC50
Test Value: < 0.1 µM
//
Molecule: O=C(Cc1ccc(S(=O)(=O)C(F)(F)F)cc1)Nc1nc(-c2sc(CO)nc2CCC(=O)N2CCOCC2)cs1 [Compound I-363]
Reported Metric: IC50
Test Value: 0.1 to 1 µM
//
Molecule: Cc1nc(C(=O)NC#N)sc1-c1csc(NC(=O)Cc2c(F)cccc2F)n1 [Compound I-108]
Reported Metric: IC50
Test Value: 1 to 8 µM
//
Molecule: Cc1nc(C)c(-c2csc(NC(=O)Cc3cccc(C(=O)NC(c4ccccc4)C(F)(F)F)n3)n2)s1 (stereo not shown) [Compound I-506]
Reported Metric: IC50
Test Value: < 0.1 µM
//
Molecule: Cc1nc(CO)sc1-c1csc(NC(=O)NCc2ccc(Cl)cc2)n1 [Compound I-442]
Reported Metric: IC50
Test Value: 0.1 to 1 µM
